The values you see were collected from patent US20220248744A1.

# condition: UV λ=300 nm, air flow, 1H NMR
readoutLabel: degradation after 24 hours of UV irradiation

molecule="CN1CCCC1c1cccnc1.O=C(O)CC(O)C(=O)O [(S)-nicotinium D-malate]" valueobserved="no degradation"
molecule="CN1CCC[C@H]1c1cccnc1.O=C(O)C[C@H](O)C(=O)O [orthorhombic P212121 (S)-nicotinium L-malate]" valueobserved="no degradation"
molecule="CN1CCCC1c1cccnc1.O.O=C(O)c1cc(=O)[nH]c(=O)[nH]1 [(S)-nicotinium orotate monohydrate]" valueobserved="no degradation"

* * *

# condition: UV λ=300 nm, air flow, 1H NMR
readoutLabel: degradation after 24 hours of UV irradiation

compound="CN1CCC[C@H]1c1cccnc1.O=C(O)C[C@H](O)C(=O)O [monoclinic P21 (S)-nicotinium L-malate, (S)-nicotinium L-malate]" valueobserved="no degradation"
compound="CN1CCC[C@H]1c1cccnc1.O=C(O)c1ccccc1O [monoclinic P21 (S)-nicotinium salicylate, (S)-nicotinium salicylate]" valueobserved="no degradation"
compound="CN1CCC[C@H]1c1cccnc1.O=C(O)c1c(O)cccc1O [(S)-nicotinium 2,6-dihydroxybenzoate]" valueobserved="no degradation"
compound=CN1CCC[C@H]1c1cccnc1.O=C(O)c1cc(O)c(C(=O)O)cc1O valueobserved="no degradation"
